Assignment: determine reported isobaric coefficient of expansion for the given compounds.
# Experimental protocol: isobaric coefficient of expansion
# Experimental context: 348.15 K; 5000 kPa; Liquid; DSC

Sample answers from the record:
chemical_structure=CCCCCCCCCC value="0.00108 1/K"
chemical_structure=CCCCCCCCCCC value="0.00103 1/K"
chemical_structure=CCCCCCCCCCCCCCC value="0.000925 1/K"
chemical_structure=CCCCCCCCCCCCC value="0.00098 1/K"
chemical_structure=c1ccccc1 value="0.00132 1/K"
chemical_structure=ClC(Cl)(Cl)Cl value="0.00132 1/K"
chemical_structure=CCCCCCCCCCCC value="0.000999 1/K"
chemical_structure=CCCCCCCCCCCCCC value="0.000941 1/K"

Ask: Item CCCCCCCCC has what recorded isobaric coefficient of expansion?
Reply: 0.00114 1/K

meta.source: the NIST ThermoML archive (doi:10.1021/je900757k)
